Reported values of viability, T/C for individual entries
Tested on: 817829-284-R-J1-PDC complex spheroids, viability;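 also: spheroids exposed to the agents for seven days before readout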
Experiment: Anticancer human tumor 817829-284-R-J1-PDC patient-derived colon adenocarcinoma cell line growth inhibition [CLK]
Settings: second compound 10 µM; first compound 3.16 µM; active compounds read low
Source text: A high-throughput screen of multi-cell type tumor spheroids was designed to identify active combinations of […] and targeted small molecules. Complex spheroids include a stromal component modeled by human endothelial cells (HUVEC) and fibroblasts modeled by human mesenchymal stem cells (MSCs). […] Compounds. […] If the clinical Cmax for an agent had not been determined, the highest concentration tested was 10 microM. […]

Compound	Measured Target	viability, T/C, %
CC(CO)NC(=O)c1cc(-c2ccc(Cl)cc2)nn(-c2cnn(C)c2)c1=O (stereo not given) + CNC(=O)c1ccc(Nc2nc(OC3CCCC3)c3c(-c4ccc5nc(C)oc5c4)c[nH]c3n2)c(OC)c1	817829-284-R-J1-PDC complex spheroids, viability	14.1
CC(Nc1ccc2c(c1)OCCn1cc(N3C(=O)OCC3C(F)F)nc1-2)C(N)=O (stereo not given) + CN1CCN(c2cc(C(=O)Nc3cc4cc(-c5cnn(C)c5)ccc4cn3)ccn2)CC1	817829-284-R-J1-PDC complex spheroids, viability	0.24
CC1COCCN1c1cc(C2(S(C)(=N)=O)CC2)nc(-c2ccnc3[nH]ccc23)n1 (stereo not given) + CN1CCN(c2cc(C(=O)Nc3cc4cc(-c5cnn(C)c5)ccc4cn3)ccn2)CC1	817829-284-R-J1-PDC complex spheroids, viability	0.15
C#Cc1c(F)ccc2cc(O)cc(-c3ncc4c(N5CC6CCC(C5)N6)nc(OCC56CCCN5CC(F)C6)nc4c3F)c12 (stereo not given) + CN1CCN(c2cc(C(=O)Nc3cc4cc(-c5cnn(C)c5)ccc4cn3)ccn2)CC1	817829-284-R-J1-PDC complex spheroids, viability	0.17
Nc1ccn(C2OC(CO)C(O)C2(F)F)c(=O)n1 (stereo not given) + CN1CCN(c2cc(C(=O)Nc3cc4cc(-c5cnn(C)c5)ccc4cn3)ccn2)CC1	817829-284-R-J1-PDC complex spheroids, viability	0.11
C=C(F)C(=O)N1CCN(c2nc(OCC3CCCN3C)nc3c2CCN(c2cccc4cccc(Cl)c24)C3)CC1CC#N (stereo not given) + CN1CCN(c2cc(C(=O)Nc3cc4cc(-c5cnn(C)c5)ccc4cn3)ccn2)CC1	817829-284-R-J1-PDC complex spheroids, viability	0.2
C=CC(=O)N1CCN(c2nc(=O)n(-c3c(C)ccnc3C(C)C)c3nc(-c4c(O)cccc4F)c(F)cc23)C(C)C1 (stereo not given) + CNC(=O)c1ccc(Nc2nc(OC3CCCC3)c3c(-c4ccc5nc(C)oc5c4)c[nH]c3n2)c(OC)c1	817829-284-R-J1-PDC complex spheroids, viability	19.1
CC(=O)O[C@H]1C(=O)[C@@]2(C)[C@H]([C@H](OC(=O)c3ccccc3)[C@]3(O)C[C@H](OC(=O)[C@H](O)[C@@H](NC(=O)c4ccccc4)c4ccccc4)C(C)=C1C3(C)C)[C@]1(OC(C)=O)CO[C@@H]1C[C@@H]2O + CNC(=O)c1ccc(Nc2nc(OC3CCCC3)c3c(-c4ccc5nc(C)oc5c4)c[nH]c3n2)c(OC)c1	817829-284-R-J1-PDC complex spheroids, viability	20.5
COc1ccc([C@@H](O)c2cc(-c3ncnc4cc(N5CCOCC5)ccc34)c(F)cc2Cl)nn1 + CN1CCN(c2cc(C(=O)Nc3cc4cc(-c5cnn(C)c5)ccc4cn3)ccn2)CC1	817829-284-R-J1-PDC complex spheroids, viability	0.15
CC(=O)O[C@H]1C(=O)[C@@]2(C)[C@H]([C@H](OC(=O)c3ccccc3)[C@]3(O)C[C@H](OC(=O)[C@H](O)[C@@H](NC(=O)c4ccccc4)c4ccccc4)C(C)=C1C3(C)C)[C@]1(OC(C)=O)CO[C@@H]1C[C@@H]2O + CN1CCN(c2cc(C(=O)Nc3cc4cc(-c5cnn(C)c5)ccc4cn3)ccn2)CC1	817829-284-R-J1-PDC complex spheroids, viability	0.11
COc1cccc2c1C(=O)c1c(O)c3c(c(O)c1C2=O)CC(O)(C(=O)CO)CC3OC1CC(N)C(O)C(C)O1 (stereo not given) + CN1CCN(c2cc(C(=O)Nc3cc4cc(-c5cnn(C)c5)ccc4cn3)ccn2)CC1	817829-284-R-J1-PDC complex spheroids, viability	0.1
O=C(c1cc(Cc2n[nH]c(=O)c3ccccc23)ccc1F)N1CCN(C(=O)C2CC2)CC1 + CN1CCN(c2cc(C(=O)Nc3cc4cc(-c5cnn(C)c5)ccc4cn3)ccn2)CC1	817829-284-R-J1-PDC complex spheroids, viability	0.18
CC(Nc1ccc2c(c1)OCCn1cc(N3C(=O)OCC3C(F)F)nc1-2)C(N)=O (stereo not given) + CNC(=O)c1ccc(Nc2nc(OC3CCCC3)c3c(-c4ccc5nc(C)oc5c4)c[nH]c3n2)c(OC)c1	817829-284-R-J1-PDC complex spheroids, viability	16.8
O=C(c1cc(Cc2n[nH]c(=O)c3ccccc23)ccc1F)N1CCN(C(=O)C2CC2)CC1 + CNC(=O)c1ccc(Nc2nc(OC3CCCC3)c3c(-c4ccc5nc(C)oc5c4)c[nH]c3n2)c(OC)c1	817829-284-R-J1-PDC complex spheroids, viability	15.8
COC1C=CCC(C)C(C)S(=O)(=O)NC(=O)c2ccc3c(c2)N(CC2CCC21)CC1(CCCc2cc(Cl)ccc21)CO3 (stereo not given) + CN1CCN(c2cc(C(=O)Nc3cc4cc(-c5cnn(C)c5)ccc4cn3)ccn2)CC1	817829-284-R-J1-PDC complex spheroids, viability	0.37
C=C(F)C(=O)N1CCN(c2nc(OCC3CCCN3C)nc3c2CCN(c2cccc4cccc(Cl)c24)C3)CC1CC#N (stereo not given) + CNC(=O)c1ccc(Nc2nc(OC3CCCC3)c3c(-c4ccc5nc(C)oc5c4)c[nH]c3n2)c(OC)c1	817829-284-R-J1-PDC complex spheroids, viability	3.94
C=CC(=O)N1CCN(c2nc(=O)n(-c3c(C)ccnc3C(C)C)c3nc(-c4c(O)cccc4F)c(F)cc23)C(C)C1 (stereo not given) + CN1CCN(c2cc(C(=O)Nc3cc4cc(-c5cnn(C)c5)ccc4cn3)ccn2)CC1	817829-284-R-J1-PDC complex spheroids, viability	0.12
CC(CO)NC(=O)c1cc(-c2ccc(Cl)cc2)nn(-c2cnn(C)c2)c1=O (stereo not given) + CN1CCN(c2cc(C(=O)Nc3cc4cc(-c5cnn(C)c5)ccc4cn3)ccn2)CC1	817829-284-R-J1-PDC complex spheroids, viability	0.23
Nc1ccn(C2OC(CO)C(O)C2(F)F)c(=O)n1 (stereo not given) + CNC(=O)c1ccc(Nc2nc(OC3CCCC3)c3c(-c4ccc5nc(C)oc5c4)c[nH]c3n2)c(OC)c1	817829-284-R-J1-PDC complex spheroids, viability	4.26
O=c1[nH]cc(F)c(=O)[nH]1 + CNC(=O)c1ccc(Nc2nc(OC3CCCC3)c3c(-c4ccc5nc(C)oc5c4)c[nH]c3n2)c(OC)c1	817829-284-R-J1-PDC complex spheroids, viability	7.79
